Biological target: T1, fHbp m001927 (Neisseria meningitidis; fHbp …, chimera)
T1 chain: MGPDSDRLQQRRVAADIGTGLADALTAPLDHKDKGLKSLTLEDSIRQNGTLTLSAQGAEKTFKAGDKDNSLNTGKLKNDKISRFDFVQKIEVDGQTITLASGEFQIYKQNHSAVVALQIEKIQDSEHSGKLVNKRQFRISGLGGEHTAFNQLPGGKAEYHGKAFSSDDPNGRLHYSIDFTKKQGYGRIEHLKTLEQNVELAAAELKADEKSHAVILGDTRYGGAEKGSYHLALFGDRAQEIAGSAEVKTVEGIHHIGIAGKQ
Assay: BLI
Conditions: both partners purified
Task for the reader: assign each of the following binders its reported Kd.
One number for each entry, in nM.

For every item in the list below, what is its measured Kd?
1. mAb 1E6 (human) (antibody, V domains shown, source: Expi293, purified (MabSelect SuRe, SEC); copies: 2 + 2) VH: EVQLVQSGAEVKKPGSSVKVSCKASGGTVIDYPITWVRQAPGQGLEWVGGFVPLFRTSNYGQKFQGRVTITADKSTSTASMELNSLTSEDTAIYYCARGDTAMGPFDYWGQGTLVTVSS VL: SYVLTQPPSLSVAPGKTATLTCGGNNIAGKTVHWYQQRPGQAPVLVISYDSDRPSGIPERFSGSNSANTATLTISRVEAGDEADYYCQVWDRNSDHWVFGGGTKLTVL
2. chimeric antibody hJAR5 (antibody, V domains shown, also called hJAR5-2; humanized JAR5; source: Expi293, purified (MabSelect SuRe, SEC); copies: 2 + 2) VH: QVQMQQPGAELVKPGASVKLSCKASGYTFISYWMHWVKQRPGRGLEWIGRIAPDTGIIYYNEKFKNKATLTVDTPSSTAYMQLNSLTSEDSAVYYCARYLKYDGSTYRFDYWGQGTTLTVSS VL: DIVMTQAAPSVPVTPGESVSISCRSSKSLLHSNGNTYLFWFLQRPGQSPQLLIYRMSNLASGVPDRFSGSGSGTSFTLRISRVEAEDVGVYYCMQHLEYPYTFGGGTKLEIK
3. chimeric antibody h12C1 (antibody, V domains shown, also called humanized 12C1; source: Expi293, purified (MabSelect SuRe, SEC); copies: 2 + 2) VH: QVQLQESGPELVKPGASVKISCKASGYSFSDYNMSWVKQSNGKSLEWIGIIDPKYGTINYNQKFKGKATLTVDQASSTAYMQLNSLTSEDSAVYYCVRDYYGSSYFDYWGQGTTLTVSS VL: DIVLTQSPSSIYASLGERVTLTCKASQDIHNYLNWFQQKPGKSPKTLIYRANRLVDGVPSRFSGGGSGQDYSLTISSLEFEDIGIYYCLQYDEFPPTFGGGTRLEIK
4. mAb 4B3 (human) (antibody, V domains shown, also called 4B3-2; source: Expi293, purified (MabSelect SuRe, SEC); copies: 2 + 2) VH: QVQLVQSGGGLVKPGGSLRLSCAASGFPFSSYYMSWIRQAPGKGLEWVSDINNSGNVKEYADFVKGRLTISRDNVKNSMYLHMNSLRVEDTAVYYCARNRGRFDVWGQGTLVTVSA VL: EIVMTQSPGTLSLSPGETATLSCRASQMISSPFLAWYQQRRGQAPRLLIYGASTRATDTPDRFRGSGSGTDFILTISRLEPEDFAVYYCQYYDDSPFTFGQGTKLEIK

output:
0.293
0.824
0.38
3.64
